Test system: Plasmodium falciparum
method notes: Antimalarial activity against multidrug-resistant Plasmodium falciparum K1 by microculture radioisotope technique
Assay type: functional, organism-based
measured property: pIC50
Bear in mind: pIC50 is minus log10 of a mol/L concentration; give just that figure.

So, CC(C)(O)[C@H]1CC[C@]2(C)[C@H]3CC[C@@H]4[C@@]5(C)CC[C@H](O)C(C)(C)[C@@H]5C[C@H](O)[C@@]4(C)[C@]3(C)[C@@H](O)C[C@@H]12 ? Its pIC50 was 4.92

So, CC(=O)O[C@H]1CC[C@]2(C)[C@H]3CC[C@@H]4[C@@]5(C)CC[C@H](C(C)(C)O)[C@@H]5C[C@H](O)[C@@]4(C)[C@]3(C)[C@@H](O)C[C@H]2C1(C)C ? Its pIC50 was 5.28

So, C[C@H]1[C@@H](O)O[C@@H]2O[C@@]3(C)CC[C@H]4[C@H](C)CC[C@@H]1[C@@]24OO3 [ARTENIMOL] ? Its pIC50 was 8.96

So, CC(=O)O[C@H]1CC[C@]2(C)C3=C(CC[C@H]2C1(C)C)[C@]1(C)CC[C@H]([C@H]2CC[C@H](C(C)(C)O)OC2)[C@@]1(C)C[C@H]3O [HYPOCRELLOL D] ? Its pIC50 was 5.10
